// melting point lookup, one value per entry

1) CCC(=O)Oc1c(OC)cc(C)c(C(=O)c2c(OC)ccc(Cl)c2C)c1OC : 150 to 151 °C
2) CS(=O)(=O)c1cccnc1CC1C(=O)C2(COc3cc4c(cc32)OCCO4)c2ccccc21 (configuration not stated) : > 250 °C
3) NS(=O)(=O)Oc1ccccc1F : 63 to 64 °C
4) Cc1ccc(-c2ccc(S(C)(=O)=O)cc2)n1-c1ccc(F)cc1 : 110 to 112 °C
5) CS(=O)(=O)c1ccc(-n2cc(-c3ccc(OC(F)(F)F)cc3)nc2-c2ccc(Cl)cc2)cc1 : 95 to 97 °C
6) CN(C)C=Cc1cccc(CC(=O)O)c1[N+](=O)[O-] : 124 to 126 °C

Next, consider the following compound.
Look up melting point of `CCCCCCCCCCCCCCCCSCCO` and report it.
50 °C

* * *

Catalogue of melting point readings, one per entry.

Use these answered entries as a reference point.
1) COC(=O)c1ccc(Cl)cc1O : 27 to 30 °C
2) CC(C)[Si](Oc1ccc([C@@H](O)[C@@H](C)N2CCC(O)(c3ccccc3)CC2)cc1F)(C(C)C)C(C)C (relative stereo) : 140 to 141 °C
3) OC1=C(c2ccccc2)CC(O)(Cl)C=C1 (configuration not stated) : 110 to 111 °C
4) COc1ccc(SCc2ccccc2)c(Cl)c1Cl : 116 to 117 °C
5) CC(=O)OC1CSC(Oc2cccc(-c3cccs3)c2)C(OC(C)=O)C1OC(C)=O (configuration not stated) : 122 to 123 °C
6) COc1ccc(-c2cc(=O)n(CC(C)C)nc2-c2ccc(OC)c(F)c2)cc1F : 154 °C

Consider the additional compound presented here.
Give reported melting point value for `Cc1oc(-c2ccco2)nc1COc1ccc(COc2nn(Cc3ccccc3)cc2CO)cc1Cl`
119 to 120 °C

* * *

assay_metric: melting point

1. CCc1nc2c(N)nc3ccc(O)cc3c2n1C : > 240 °C

Turning now to a further compound:
Please look at this compound and report its melting point: `O=c1ncc(I)cn1COc1ccc(Cl)cc1`
216 °C

* * *

# key: entry, value: melting point

Consider the reported melting point for these molecules:
1. Nc1nc(N)c(CCCCc2ccc(C(=O)N[C@@H](CCC(=O)O)C(=O)O)cc2)c(O)n1 : 169 to 171 °C
2. O=[N+]([O-])c1cnc(Cl)nc1 : 78 to 80 °C
3. CC1(C)Cc2sccc2C1N (stereo not given) : 80 °C
4. SCCNc1nc(-c2ccccc2)c2cc(Cl)ccc2n1 : 166 °C

Fill in melting point for record `CN(C)c1ccc2sc(C=O)cc2c1`
105 to 106 °C

Output melting point of CC1C(=O)Oc2c(Oc3ccccc3Cl)cccc21 (stereo not given)
92 to 95 °C

Supply melting point value. Item: CCCC1=C(C(=O)OCC)C(c2ccccc2Cl)c2c[nH]nc2N1 (stereo not given)
202 to 205 °C

Assign melting point to the following record: `CC(C)c1nc(-c2cccs2)cc(-c2ccc(F)cc2)c1C=C(Br)Br`
107 to 108 °C

State its melting point: CCOC(=O)CN(C)C1CCCN(C(=O)c2ccc(NC(=O)c3ccccc3C)cc2)c2ccccc21 (stereo not given)
167 to 168 °C

// Input: `c1ccc2c(c1)nc(-c1ccc3c(c1)OCO3)n2Cc1ccncc1` . Output its melting point only.
166 to 167 °C

Given the molecule `COc1ccc(-c2csc(Nc3ncccn3)n2)cc1OC` , write its reported melting point.
225 to 228 °C

Give reported melting point value for `Nc1c(-c2ccc(Oc3ccccc3)cc2)nc2ccc(C(F)(F)F)cc2c1C(=O)O`
220 to 225 °C

In one line, give reported melting point of the entry `Cc1noc(NS(=O)(=O)c2ccccc2-c2ccc(-c3ccccn3)cc2)c1C` .
85 to 90 °C

Dear colleague, please send me the reported melting point for `CCCN(CCC)C(=O)Cc1ccc(OCC(=O)c2ccc(OC)cc2)c([N+](=O)[O-])c1` when you can.
95 to 97 °C

State, in one line, measured melting point of `CS(=O)(=O)c1cccc(Cn2ccc(OCc3ccc(F)cc3F)c(Cl)c2=O)c1`
155 to 157 °C
